measurement_protocol: viability loss in pontine glioma line – cell-based, SU-DIPG-XIII, MIPE5.0, CellTiter-Glo, qHTS, dose response (AID 1347064);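 also: cells exposed to compound for 48 hours before the viability read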
cond: CellTiter-Glo ATP luminescence
Records with an inconclusive call do not appear. Calls of active or inactive are those of the source. The limit is not given here; nearly all actives have AC50 up to about 23 µM.
measured_parameter: AC50

For O=C(/C=C\n1cnc(-c2cc(C(F)(F)F)cc(C(F)(F)F)c2)n1)NNc1ccccn1 , what is its reported AC50? 0.295 µM (active)

Also CS(=O)(=O)N1CCC(NC(=O)c2[nH]ncc2NC(=O)c2c(Cl)cccc2Cl)CC1 ? 4.17 µM (active)

---

Provide the recorded plate-normalised HSF1 focus index for the entries that follow.
measurement_protocol: compounds altering HSF1 focus formation in cells – imaging, Selleck Cancer Library (AID 1347162)
cond: human cells, HSF1 nuclear foci imaging, at 10 µM; stronger effect = lower value
Lab note: jot down the number only; don't add units.

For COc1c(C)cnc(Cn2cnc3c(Cl)nc(N)nc32)c1C , what is its reported plate-normalised HSF1 focus index? 1.16

Also C[C@@H]1CN(CC(=O)Nc2ccc3c(c2)Cc2cccc(-c4cc(=O)cc(N5CCOCC5)o4)c2S3)C[C@H](C)O1 ? 1.15

Also CCC(=O)N1CCN(c2ccc(-n3c(=O)ccc4cnc5ccc(-c6cnc7ccccc7c6)cc5c43)cc2C(F)(F)F)CC1 ? 1.1

Also CN(NC(=O)CC(=O)NN(C)C(=S)c1ccccc1)C(=S)c1ccccc1 ? 1.13

Also CCOc1cc2ncc(C#N)c(Nc3ccc(F)c(Cl)c3)c2cc1NC(=O)/C=C/CN(C)C ? 1.19

Also CC(C)Oc1cc(Nc2nc(N[C@@H](C)c3ccc(F)cn3)ncc2Cl)[nH]n1 ? 0.979

Also CC1(C)OC2=C(C(=O)c3ccccc3C2=O)[C@H](NCc2ccccc2)[C@@H]1O ? 1.05

Also Nc1[nH]nc2nnc(-c3c(-c4ccccc4)nn4ccccc34)cc12 ? 1.16

Also Nc1ccc(C(=O)Nc2cccc(-c3nc(N4CCOCC4)c4oc5ncccc5c4n3)c2)cn1 ? 0.989

Also COc1cc2ncnc(Nc3ccc(F)c(Cl)c3)c2cc1NC(=O)/C=C/CN1CCCCC1 ? 1.09

Also COc1cccc2c1CCCC2CCCN1CCN(C2CCCCC2)CC1 (stereo not drawn) ? 0.878

Also CCCCc1nc2cc(/C=C/C(=O)NO)ccc2n1CCN(CC)CC ? 0.904

Also Cc1cnc(-c2cnc(NCCNc3ccc(C#N)cn3)nc2-c2ccc(Cl)cc2Cl)[nH]1 ? 0.999

Also CC(C)(C)c1[nH]cnc1/C=c1\[nH]c(=O)/c(=C/c2ccccc2)[nH]c1=O ? 1.17

Also CCOc1ccn(-c2ccc(F)cc2)c(=O)c1C(=O)Nc1ccc(Oc2ccnc(N)c2Cl)c(F)c1 ? 1.11

Also O=C(Nc1ccc(OC(F)(F)F)cc1)c1sccc1NCc1ccnc2ccccc12 ? 1.18

Also CC[C@@H]1C(=O)N(C)c2cnc(Nc3ccc(C(=O)NC4CCC(N5CCN(CC6CC6)CC5)CC4)cc3OC)nc2N1C(C)C (stereo partly drawn) ? 1.16

Also COC(=O)Nc1ccc(-c2nc(N3CCOCC3)c3cnn(C4CCN(C(=O)OC)CC4)c3n2)cc1 ? 1.06

---

measurement_protocol: growth inhibition, single agents and combos, LFS_MB_2R, cell-based, cisplatin combos, synergistic combos for chromothripsis tumors (AID 1671457);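 also: cells exposed to compound for four days before readout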
cond: LFS_MB_2R medulloblastoma cells, measured here: combination with cisplatin, at 0.5 µM, stronger effect = higher value
measured_parameter: inhibition (%)
Report only the number, with the unit % understood.

For CC(=O)[C@]1(N)Cc2c(O)c3c(c(O)c2[C@@H](O[C@H]2C[C@H](O)[C@H](O)CO2)C1)C(=O)c1ccccc1C3=O , what is its reported inhibition? -9.33

Also NC1CCC(N[C@@H]2C[C@H]2c2ccccc2)CC1 (some centres not stated) ? -40

Also O=C(/C=C/c1ccc(CN(CCO)CCc2c[nH]c3ccccc23)cc1)NO ? 99.3

Also O=c1[nH]cnc2ccccc12 ? -21.4

Also c1cc(Nc2cc(C3CC3)[nH]n2)nc(Nc2ccc3nc[nH]c3c2)n1 ? 87.3

Also COc1ccc(-n2c(SCCCN3C(=O)c4cccc5cccc(c45)C3=O)nnc2-c2ccncc2)cc1 ? -8.95

Also CC(C)OC(=O)[C@H](C)N[P@](=O)(OC[C@H]1O[C@@H](n2ccc(=O)[nH]c2=O)[C@](C)(F)[C@@H]1O)Oc1ccccc1 ? -25

Also N=C1CCCN1Cc1[nH]c(=O)[nH]c(=O)c1Cl ? -21.1

Also COc1cc(C=O)c([N+](=O)[O-])cc1OC ? -4.15

Also NCCOc1cc(C(=O)Nc2cc(OCCN)c3ccccc3n2)nc(C(=O)Nc2cc(OCCN)c3ccccc3n2)c1 ? -2.5

Also CC(=O)Nc1nc(C)c(-c2ccc(Cl)c(S(=O)(=O)NCCO)c2)s1 ? 10.4

Also Nc1nc2n[nH]nc2c(=O)[nH]1 ? -13.8

Also O=C(O)[C@H](Cc1c[nH]c2ccccc12)N1C(=O)c2ccccc2C1=O ? -13

Also Cc1ccc2nc(NCCN)c3ncc(C)n3c2c1 ? -10.3

Also CCCCc1nc2cc(/C=C/C(=O)NO)ccc2n1CCN(CC)CC ? 56.5

Also Nc1ccccc1NC(=O)c1ccc(CNc2nccc(-c3cccnc3)n2)cc1 ? 45.3

Also Cc1cn([C@@H]2O[C@H](CO)[C@@H](O)[C@@H]2F)c(=O)[nH]c1=O ? -30.2

Also O=C(O)CO.[NH2-].[NH2-].[Pt+2] ? -13.9

Also CC(=O)Nc1ccc(C(=O)Nc2ccccc2N)cc1 ? -6.43

Also Nc1ccc(-c2ccc3ncc4ccc(=O)n(-c5cccc(C(F)(F)F)c5)c4c3c2)cn1 ? 17.6

Also COc1ccc(C(=O)CC2(O)C(=O)Nc3c(Cl)ccc(Cl)c32)cc1 (configuration not stated) ? -11.7

Also COc1cc2ncnc(-n3nc(-c4ccccn4)nc3N)c2cc1OC ? -13.8
